Answer each item with its documented ELISA luminescence signal at 10 nmol/L peptide, relative to SEQ ID NO: 47 (=1).
target: T1, Recombinant Human FGFR2 alpha (IIIc) Fc Chimera Protein, CF (R&D systems, 712-FR-050) (human, UniProt P21802 22-377); test: ELISA on plate-bound FGFR2-Fc
T1 construct: bought; not shown: Fc part of the chimera
T1 sequence (P21802 22-377, change not shown): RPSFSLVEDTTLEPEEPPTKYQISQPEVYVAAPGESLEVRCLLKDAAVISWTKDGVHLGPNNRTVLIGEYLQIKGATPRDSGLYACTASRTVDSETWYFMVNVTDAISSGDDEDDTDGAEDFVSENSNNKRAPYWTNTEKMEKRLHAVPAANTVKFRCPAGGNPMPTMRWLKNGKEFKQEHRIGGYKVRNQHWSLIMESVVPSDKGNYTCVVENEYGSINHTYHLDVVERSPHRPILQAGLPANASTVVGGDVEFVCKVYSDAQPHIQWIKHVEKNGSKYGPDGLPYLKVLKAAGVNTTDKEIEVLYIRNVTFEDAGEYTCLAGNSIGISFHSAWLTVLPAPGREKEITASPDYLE
Bridge positions count the residues as written; N and C are the ends. Ends that are not written are not given here. COCH2 = acetyl group that carries the bridge

Request: Query ELISA luminescence signal at 10 nmol/L peptide, relative to SEQ ID NO: 47 (=1) for YCEENYLDPEQYQYFIYFK(COCH2)M (thioether 2-19) [cyclic peptide SEQ ID NO: 360]
Result: ≥ 0.7 ratio

Request: Query ELISA luminescence signal at 10 nmol/L peptide, relative to SEQ ID NO: 47 (=1) for YCEENYLDPEQYQYFQYFK(COCH2)Y (thioether 2-19 (inferred)) [cyclic peptide SEQ ID NO: 284]
Result: ≥ 0.7 ratio

Request: Query ELISA luminescence signal at 10 nmol/L peptide, relative to SEQ ID NO: 47 (=1) for YCEENYLDPNQYQYFIYFK(COCH2)Y (thioether 2-19 (inferred)) [cyclic peptide SEQ ID NO: 244]
Result: ≥ 0.7 ratio

Request: Query ELISA luminescence signal at 10 nmol/L peptide, relative to SEQ ID NO: 47 (=1) for LCEINWLSQEQYGYFIEYK(COCH2)T (thioether 2-19) [cyclic peptide SEQ ID NO: 126]
Result: ≥ 0.7 ratio

Request: Query ELISA luminescence signal at 10 nmol/L peptide, relative to SEQ ID NO: 47 (=1) for KCPQNFINPVQWRYFAHYKN (not fully specified; thioether ring (C)-(K(acetyl))) [cyclic peptide SEQ ID NO: 65]
Result: ≥ 0.7 ratio

Request: Query ELISA luminescence signal at 10 nmol/L peptide, relative to SEQ ID NO: 47 (=1) for QCQLYYLYQYTIAIK(COCH2)T (thioether 2-15) [cyclic peptide SEQ ID NO: 384]
Result: 0.1 to 0.5 ratio

Request: Query ELISA luminescence signal at 10 nmol/L peptide, relative to SEQ ID NO: 47 (=1) for NCEENYLDPEQYQYFIYFK(COCH2)Y (thioether 2-19) [cyclic peptide SEQ ID NO: 143]
Result: ≥ 0.7 ratio

Request: Query ELISA luminescence signal at 10 nmol/L peptide, relative to SEQ ID NO: 47 (=1) for YCEENYLDPEQYQYFINFK(COCH2)Y (thioether 2-19 (inferred)) [cyclic peptide SEQ ID NO: 298]
Result: ≥ 0.7 ratio

Request: Query ELISA luminescence signal at 10 nmol/L peptide, relative to SEQ ID NO: 47 (=1) for QCYYLYWYLYK(COCH2)I (thioether 2-11) [cyclic peptide SEQ ID NO: 361]
Result: 0.1 to 0.5 ratio

Request: Query ELISA luminescence signal at 10 nmol/L peptide, relative to SEQ ID NO: 47 (=1) for QCEENYLDPEQYQYFIYFK(COCH2)Y (thioether 2-19) [cyclic peptide SEQ ID NO: 144]
Result: ≥ 0.7 ratio

Request: Query ELISA luminescence signal at 10 nmol/L peptide, relative to SEQ ID NO: 47 (=1) for YCELNYLDPEQYQYFIYFK(COCH2)Y (thioether 2-19) [cyclic peptide SEQ ID NO: 168]
Result: ≥ 0.7 ratio

Request: Query ELISA luminescence signal at 10 nmol/L peptide, relative to SEQ ID NO: 47 (=1) for YCEPNYLDPEQYQYFIYFK(COCH2)Y (thioether 2-19) [cyclic peptide SEQ ID NO: 167]
Result: ≥ 0.7 ratio

Request: Query ELISA luminescence signal at 10 nmol/L peptide, relative to SEQ ID NO: 47 (=1) for YCEENYLDPEQYQYFIYFK(COCH2)V (thioether 2-19 (inferred)) [cyclic peptide SEQ ID NO: 311]
Result: ≥ 0.7 ratio

Request: Query ELISA luminescence signal at 10 nmol/L peptide, relative to SEQ ID NO: 47 (=1) for LCADQYDYLLQYVFWRTYK(COCH2)I (thioether 2-19) [cyclic peptide SEQ ID NO: 134]
Result: 0.1 to 0.5 ratio

Request: Query ELISA luminescence signal at 10 nmol/L peptide, relative to SEQ ID NO: 47 (=1) for YCEENYLIPEQYQYFIYFK(COCH2)Y (thioether 2-19 (inferred)) [cyclic peptide SEQ ID NO: 209]
Result: 0.1 to 0.5 ratio

Request: Query ELISA luminescence signal at 10 nmol/L peptide, relative to SEQ ID NO: 47 (=1) for YCEENYLDPEQYQYFIHFK(COCH2)Y (thioether 2-19 (inferred)) [cyclic peptide SEQ ID NO: 305]
Result: ≥ 0.7 ratio

Request: Query ELISA luminescence signal at 10 nmol/L peptide, relative to SEQ ID NO: 47 (=1) for HCPQNFINPVQWRYFQHYK(COCH2)N (thioether 2-19 (inferred)) [cyclic peptide SEQ ID NO: 86]
Result: ≥ 0.7 ratio

Request: Query ELISA luminescence signal at 10 nmol/L peptide, relative to SEQ ID NO: 47 (=1) for YCTENYLDPEQYQYFIYFK(COCH2)Y (thioether 2-19) [cyclic peptide SEQ ID NO: 162]
Result: ≥ 0.7 ratio

Request: Query ELISA luminescence signal at 10 nmol/L peptide, relative to SEQ ID NO: 47 (=1) for YCHENYLDPEQYQYFHYFK(COCH2) (thioether 2-19 (inferred)) [cyclic peptide SEQ ID NO: 429]
Result: 0.1 to 0.5 ratio

Request: Query ELISA luminescence signal at 10 nmol/L peptide, relative to SEQ ID NO: 47 (=1) for YCEHNYLDPEQYQYFIYFK(COCH2)Y (thioether 2-19 (inferred)) [cyclic peptide SEQ ID NO: 180]
Result: ≥ 0.7 ratio

Request: Query ELISA luminescence signal at 10 nmol/L peptide, relative to SEQ ID NO: 47 (=1) for YCEENYLDPEQYQYFIYFK(COCH2)E (thioether 2-19 (inferred)) [cyclic peptide SEQ ID NO: 319]
Result: ≥ 0.7 ratio

Request: Query ELISA luminescence signal at 10 nmol/L peptide, relative to SEQ ID NO: 47 (=1) for YCKENYLDPEQYQYFIYFK(COCH2)Y (thioether 2-19; not fully specified; printed as Y-(C)-KENYLDPEQYQYFIYF-(K(acetyl))-Y) [cyclic peptide SEQ ID NO: 336]
Result: ≥ 0.7 ratio

Request: Query ELISA luminescence signal at 10 nmol/L peptide, relative to SEQ ID NO: 47 (=1) for YCEENYLDPEQYQYFYYFK(COCH2)Y (thioether 2-19 (inferred)) [cyclic peptide SEQ ID NO: 281]
Result: ≥ 0.7 ratio
